experiment: Single dose PK study in male Wister-Han rats; format: in vivo; conditions: male, Wister-Han, rat, plasma, po, 5 mg/kg, 5 mg/kg oral dosing of active form
Provide the reported Cmax of each item.
# value in nM; strip the unit string

Requested read-out: Cmax. Entry: CCS(=O)(=O)c1nc(N)c2[nH]c(=O)n(Cc3ccc(Cl)cc3)c2n1 [Example S-2, reference compound]
52.7

Name the reported Cmax value associated with the molecule CCS(=O)(=O)c1nc(N)c2[nH]c(=O)n(Cc3ccc(C)cc3)c2n1 [Example S-3, reference compound]
11.5

I am curious: what Cmax value has been reported for CC[S@](=N)(=O)c1nc(N)c2[nH]c(=O)n(Cc3ccc(Cl)cc3)c2n1 (single isomer, unassigned) [Compound 41c-A] ?
32.3

What does the record list as Cmax for CCS(=N)(=O)c1nc(N)c2[nH]c(=O)n(Cc3ccc(F)cc3)c2n1 (single isomer, unassigned) [Compound 45e-A] ?
80

Cmax for CC[S@@](=N)(=O)c1nc(N)c2[nH]c(=O)n(Cc3ccc(C)cc3)c2n1 (single isomer, unassigned) [Compound 43e-A] ?
15.2

Request the reported Cmax associated with CCCCOc1nc(N)c2c(n1)N(Cc1cccc(CN3CCCC3)c1)CC(=O)N2 [GS9620, reference compound]
164

Item under review: CC[S@@](=N)(=O)c1nc(N)c2[nH]c(=O)n(Cc3ccc(Cl)cc3)c2n1 (single isomer, unassigned) [Compound 41c-B] . Reported Cmax?
5.46
